- Assay type: binding
- experimental-conditions: TRIS buffer pH 7.4, 25 °C
Hi there, I'd appreciate the recorded k2 (pH 7.4), second-order rate constant for complexation of UO2^2+ for every entry that follows.
Answers are plain numbers, in M^−1 s^−1.

INSERT INTO results (compound, result_unit, measured) VALUES
  ('Oc1cccc2ccc(CNCCNCc3ccc4cccc(O)c4n3)nc12', 'M^−1 s^−1', 3420),
  ('O=C(O)c1cccc(CNC2CCCCC2NCc2cccc(C(=O)O)n2)n1 (stereo not shown)', 'M^−1 s^−1', 1190),
  ('O=C(O)c1cccc(CNCCNCc2cccc(C(=O)O)n2)n1', 'M^−1 s^−1', 450);

// moving on: another record for k2 (pH 7.4), second-order rate constant for complexation of UO2^2+
Data point: Oc1cccc2ccc(CNC3CCCCC3NCc3ccc4cccc(O)c4n3)nc12 (stereo not shown) ; k2 (pH 7.4), second-order rate constant for complexation of UO2^2+ = 2850
